Biological target: HLA-A*02 (human)
Experiment: UV-exchange b2m ELISA
Reported peptide exchange yield values for a set of binders
measuredQuantity: peptide exchange yield

binder	experimentalResult
SISDNVWEV	50 to 75%
ALSPSYLTV	50 to 75%
FLERGLESA	20 to 49%
VLYDRPLKI	50 to 75%
KLYEADFVL	20 to 49%
FLHDEKEGIYI	50 to 75%
LLFSRLCGA	> 75%
ALLPELREV	50 to 75%
KVMATIEKV	20 to 49%
ILNTHITEL	50 to 75%
SVVPDVRSV	20 to 49%
FINDSIVYL	50 to 75%
GLLGSLFFL	> 75%
TVVTRLDEI	20 to 49%
FLLATEVVTV	> 75%
TLIDEQDIPLV	50 to 75%
